test system: field corn (Zea mays L., var. Dekalb 535, CORN); test: Pre-emerge test, crop safety; format: in vivo; conditions: crop damage, pre-emerge, rate 250 g ai/ha, phytotoxicity rating 0-100 at 14 days after application
Answer each item with its documented Pre-emerge Herbicidal Activity CORN.

Worked examples, 3 compounds total:
COc1c(Cl)cc(F)c(-n2ncc(C(F)(F)F)c(C)c2=O)c1NC(=O)c1ccc2ccccc2c1 = 0
Cc1c(Cl)cc(F)c(-n2c(=O)cc(C(F)(F)F)n(C)c2=O)c1NC(=O)OCCc1ccccc1 = 45
COc1ccc(COC(=O)Nc2c(C)c(Cl)cc(F)c2-n2c(=O)cc(C(F)(F)F)n(C)c2=O)cc1OC = 35

// for each compound in input: emit Pre-emerge Herbicidal Activity CORN
1. Cc1c(Cl)cc(F)c(-n2c(=O)cc(C(F)(F)F)n(C)c2=O)c1NC(=O)OCc1ccco1
2. COc1c(Cl)cc(F)c(-n2c(=O)n3n(c2=O)CCCC3)c1N
3. C#CCOc1c(Cl)cc(F)c(N2C(=O)C3=C(CCCC3)C2=O)c1N
4. Cc1c(Cl)cc(F)c(-n2c(=O)cc(C(F)(F)F)n(C)c2=O)c1NC(=O)OCc1ccc(Cl)cc1Cl
5. CC(C)Oc1c(Cl)cc(Cl)c(-n2nnn(CCCF)c2=O)c1N

1. 95
2. 0
3. 0
4. 10
5. 0
